Value source: ChEMBL document CHEMBL3988442

Species: Homo sapiens
Experiment: To identify inhibition of the IFN signalling (Jak-Stat) pathway via expression of an eGFP reporter gene under the control of an IFN-stimulated response element (ISRE) containing MxA promoter.
Assay type: functional
Design: scale not given: direction of the effect not stated beside the values
Conditions: 30 µM
Parameter Measured: Percent Effect (%)
Entry rule: numbers only, all in %.

*Q* Percent Effect for O=C(c1cnccn1)N1CCc2onc(CN3CCOCC3)c2C1 ?
*A* 13.9

*Q* Percent Effect for CCc1nc(CN2CCCN(c3nccs3)CC2)no1 ?
*A* 26.3

*Q* Percent Effect for CNc1nc(CNC(=O)Nc2ccccc2-c2noc(C)n2)cs1 ?
*A* 17.1

*Q* Percent Effect for CC(=O)Nc1nc(C(=O)N2CCCC2Cn2cc(C)cn2)cs1 (stereo unspecified) ?
*A* 26.6

*Q* Percent Effect for Cc1ccc(CN(C)C(=O)CN2CC(n3cccn3)C2)o1 ?
*A* 22.7

*Q* Percent Effect for Cc1nc(CN2C(=O)CCC23CCN(c2ncccn2)CC3)cs1 ?
*A* -8.11

*Q* Percent Effect for Cc1cc(C(=O)N2CCN(C(=O)Cc3ccccn3)CC2)c(C)s1 ?
*A* -10.2

*Q* Percent Effect for Cc1nc2ccnn2c(C)c1CCC(=O)N1CCN(C2CC2)CC1 ?
*A* 7.93

*Q* Percent Effect for Nc1nc2c(c(=O)[nH]1)CCN(C(=O)c1cccc3nccnc13)C2 ?
*A* -5.63

*Q* Percent Effect for Cc1cccc(-c2nc(CN3CCCCC3Cn3cncn3)no2)c1 (stereo unspecified) ?
*A* -0.995

*Q* Percent Effect for CCOCCn1nc(C)cc1C(=O)N1CCOCC(CO)C1 (stereo unspecified) ?
*A* 1.44

*Q* Percent Effect for CCc1nnc2n1CCN(C(=O)c1ccc3[nH]cnc3c1)C2 ?
*A* 0.294

*Q* Percent Effect for O=S(=O)(NCc1ccccc1Cn1cncn1)C1CCCC1 ?
*A* 5.73

*Q* Percent Effect for O=C(Cn1ccc2ccc(Br)cc21)NC[C@@H]1CCCN2CCCC[C@H]12 ?
*A* 7.57

*Q* Percent Effect for Cn1cnc(S(=O)(=O)NCCCN2CCCCCC2)c1Cl ?
*A* 4.76

*Q* Percent Effect for O=C(c1ccco1)N1CC[C@H]2[C@H]1CCN2CC1CCOCC1 ?
*A* 6.93
